Just for reference, paper PMC5698726 is where these values come from.

molecules and their reported IC50
tested-on: caspase-7 (C7) (Homo sapiens)
Construct: mature (processed, active) caspase-7, dimer, 6xHis tag; expression details only in supplement
Sequence (P55210 24-198): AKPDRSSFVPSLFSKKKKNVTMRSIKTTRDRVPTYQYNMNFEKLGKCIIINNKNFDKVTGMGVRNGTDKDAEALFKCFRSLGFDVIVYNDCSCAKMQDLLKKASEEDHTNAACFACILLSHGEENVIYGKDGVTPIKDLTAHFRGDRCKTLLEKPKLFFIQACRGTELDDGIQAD
Sequence (P55210 207-303): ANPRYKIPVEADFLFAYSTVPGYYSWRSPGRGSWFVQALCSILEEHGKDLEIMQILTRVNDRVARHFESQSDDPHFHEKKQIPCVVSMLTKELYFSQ
assay-overview: fluorogenic Ac-DEVD-AFC cleavage assay
Give the value, in units of mM, as a plain number.

structure-as-smiles: O=C(O)C1c2ccccc2Oc2ccccc21
unit-of-measurement: mM
IC50: 8.52
--
structure-as-smiles: CC(=O)c1ccccc1Sc1ccccc1C(=O)O
unit-of-measurement: mM
IC50: 3.98

Would you kindly look at the next entry?
Q: Return value of IC50 for input O=C(O)Cc1ccccc1Sc1ccccc1 , no commentary.
Result: 0.637
